procedureSummary: VSVG counterscreen qHTS to identify inhibitors of SARS-CoV-2 cell entry (AID 1645847); further: nearly all actives have a fitted effect of over 65% in size; further: potency means the concentration at half of the fitted maximal effect
measurementSetup: VSV-G pseudotyped particle entry, luciferase; series mostly up to 57.2 µM
Inconclusive results are not listed. The source made the active and inactive calls. The call rests on the fitted dose curve.
quantityMeasured: Potency

Examples with their reported Potency follow.
# Potency of "O=C(/C=C\n1cnc(-c2cc(C(F)(F)F)cc(C(F)(F)F)c2)n1)NNc1cnccn1" = 1710 nM (active)

Lab note: CN1CCC(c2c(O)cc(O)c3c(=O)cc(-c4ccccc4Cl)oc23)C1CO (stereo not given) gave Potency of 2410 nM (active)

// recorded Potency for "Cc1c(-c2ccc(-c3ccccc3F)cc2)nc2ccc(F)cc2c1C(=O)O" : 136 nM (active)

Looking up "CCCCCCCCCCCCCCCCCCCCCC(=O)Nc1ccn([C@@H]2O[C@H](CO)[C@@H](O)[C@@H]2O)c(=O)n1" , I found its Potency recorded as inactive

Others:
Potency reading for "CC(C)n1c(=O)cc(N[C@@H](C)c2ccccc2)[nH]c1=O" : inactive

* * *

procedureSummary: Cell Viability - LYMP2-014 (AID 983);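 further: cells exposed to compound for 24 h at 37 °C; nearly all actives have a fitted effect of over 50% in size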
measurementSetup: LYMP2-014 lymphoblastoid cells, viability qHTS; series mostly up to 92.2 µM
From the text: NIH Chemical Genomics Center [NCGC] NIH Molecular Libraries Screening Centers Network [MLSCN] National Institutes of Environmental Health Sciences [NIEHS] National Toxicology Program [NTP] We have developed a 1536-well cell-based assay for quantitative high throughput screening (qHTS) against a number of cell lines to determine in vitro cytotoxicity of small molecules. […] 8. Detection; Luminescence; Viewlux plate reader […]
Records with an inconclusive call do not appear. The source made the active and inactive calls. Calls come from the whole dose curve; as a rule, active = well fitted cell-killing curve with a large enough effect; inconclusive = small, poorly fitted or top-dose-only effect; inactive = flat fitted curve, though single readings scatter.
Your reply should match one of these outcome classes. active, inactive

Ask: Field: outcome | Entry: "O=C1C(Cl)=C(Cl)C(=O)C(Cl)=C1Cl"
Reply: active

Continuing:
Ask: Assay outcome for "COc1ccc(N)cc1" : what was it?
Reply: inactive

Ask: Per the assay record, what outcome was assigned to "CCN(CC)c1ccccc1" ?
Reply: inactive

Ask: Look up the recorded call for "CCCCCCCCCc1ccc(O)cc1" in this test.
Reply: inactive

Ask: Identify the outcome logged in this assay for the compound shown: "ClC(Cl)(Cl)c1ccccc1"
Reply: inactive

Ask: What outcome does the record of this test show for "O=C(O)COc1ccc(Cl)cc1Cl" ?
Reply: inactive

Ask: Hi, do you know how "Clc1ccc2ccccc2c1" came out in this test?
Reply: inactive

Ask: Dear all, I need the recorded test outcome for "Cc1ccc(O)c(C)c1" , thank you.
Reply: inactive

Ask: State the result this test recorded for "Cc1cccc(C#N)c1" .
Reply: inactive

Ask: Identify the outcome logged in this assay for the compound shown: "COC(=O)NC(=S)Nc1ccccc1NC(=S)NC(=O)OC"
Reply: inactive

Ask: So what was the verdict on "C=CCOC(=O)c1ccccc1N" in this test?
Reply: inactive

Ask: Just curious, what result did COC1=CC(=O)OC(CCc2ccccc2)C1 (stereo not given) get here?
Reply: inactive

Ask: I'd appreciate the recorded outcome for "CCOP(=S)(OCC)Oc1ccc([N+](=O)[O-])cc1" from this test.
Reply: inactive

Ask: Recorded test outcome, item "Nc1ccccc1Cl"
Reply: inactive

Ask: Could you kindly confirm the outcome this assay logged for "CCSC(=O)Cl" ?
Reply: inactive

Ask: # lookup: test call for "CCCCOC(=O)c1ccccc1C(=O)OCCCC"
Reply: inactive

Ask: Record lookup: outcome of this test for "C=C(C)C#N" ?
Reply: inactive

Ask: Could you please tell me the result logged for "O=C(Cl)/C=C/C(=O)Cl" in this assay?
Reply: inactive

Ask: Look up the recorded call for "Clc1nc(Cl)nc(Nc2ccccc2Cl)n1" in this test.
Reply: inactive

Ask: What outcome does the record of this test show for "CC(C)(c1ccccc1)c1ccc(O)cc1" ?
Reply: inactive

* * *

procedureSummary: Primary qHTS to identify inhibitors of SARS-CoV-2 cell entry (AID 1645846); further: nearly all actives have a fitted effect of over 45% in size
measurementSetup: SARS-CoV-2 pseudovirus cell entry assay, luminescence
Records with an inconclusive call do not appear. Activity calls are given as the source filed them. Calls follow the shape of the full dose curve.
// allowed return values: T = active, F = inactive

Past entries and their recorded results:
Ask: For "C[C@@H]1CC[C@@]2(OC1)O[C@H]1C[C@H]3[C@@H]4CC=C5C[C@@H](O[C@@H]6O[C@H](CO)[C@@H](O[C@@H]7O[C@@H](C)[C@H](O)[C@@H](O)[C@H]7O)[C@H](O)[C@H]6O[C@@H]6O[C@@H](C)[C@H](O)[C@@H](O)[C@H]6O)CC[C@]5(C)[C@H]4CC[C@]3(C)[C@H]1[C@@H]2C" , which call appears in the assay record?
Reply: T

Ask: Could you please tell me the result logged for "CC(C)c1c(-c2ccccc2)nc2c(C#N)c[nH]n2c1=O" in this assay?
Reply: F

Ask: Fill in: this test's call for "O=c1ccc2cc(O[C@@H]3O[C@H](CO)[C@H](O)[C@H](O)[C@H]3O)c(O)cc2o1" is ___
Reply: F

***
Ask: Which result was noted for this compound in the test: "Cc1noc(-c2ccc(-c3ccc(C4(C(=O)O)CC4)cc3)cc2)c1NC(=O)O[C@H](C)c1ccccc1"
Reply: T

Ask: How did this test come out for "C=CC(=O)N1CC/C(=C\c2ccc(F)c([N+](=O)[O-])c2)C(=O)/C(=C/c2ccc(F)c([N+](=O)[O-])c2)C1" ?
Reply: T

Ask: Please share the test call associated with "O=C(NCCCNc1nc(Nc2cccc(CN3CCOCC3)c2)ncc1C1CC1)C1CCC1" .
Reply: F

Ask: Which result was noted for this compound in the test: "CC(C)(O)c1coc(S(=O)(=O)NC(=O)Nc2c3c(cc4c2CCC4)CCC3)c1"
Reply: F

Ask: Could you check what this test reported for CCCCC(C)(O)CC=C[C@H]1[C@H](O)CC(=O)[C@H]1CCCCCCC(=O)OC (some centres undefined) ?
Reply: F

Ask: Called result for "CO[C@H]1C[C@@H](O[C@@H]2/C(C)=C/C[C@@H]3C[C@@H](C[C@]4(CC[C@H](C)[C@@H](C5CCCCC5)O4)O3)OC(=O)[C@@H]3C=C(C)/C(=N/O)[C@H]4OC/C(=C\C=C\[C@@H]2C)[C@]43O)O[C@@H](C)[C@H]1O"
Reply: F

Ask: Identify the outcome logged in this assay for the compound shown: Cc1c(O)cccc1C(=O)NC(CSc1ccccc1)C(O)CN1CC2CCCCC2CC1C(=O)NC(C)(C)C (centres undefined)
Reply: T

Ask: Per the records of this test, what outcome belongs to "COC1=C2C[C@H](C)C[C@H](OC)[C@H](O)[C@@H](C)/C=C(/C)[C@H](OC(N)=O)[C@@H](OC)/C=C\C=C(\C)C(=O)NC(=CC1=O)C2=O" ?
Reply: F

Ask: Hi, do you know how "N#CCC1(n2cc(-c3ncnc4[nH]ccc34)cn2)CN(C2CCN(C(=O)c3ccnc(C(F)(F)F)c3F)CC2)C1" came out in this test?
Reply: F

Ask: Look up the recorded call for "C[C@H](CCC(=O)O)[C@H]1CC[C@H]2[C@@H]3CC[C@@H]4C[C@H](O)CC[C@]4(C)[C@@H]3C[C@H](O)[C@]12C" in this test.
Reply: F

Ask: Recorded test call requested for "COc1cccc(N2CCN(C3=Nc4c(F)cccc4[C@H](CC(=O)O)N3c3cc(C(F)(F)F)ccc3OC)CC2)c1"
Reply: F

* * *

procedureSummary: Primary qHTS to identify inhibitors of SARS-CoV-2 cell entry (AID 1645846); further: nearly all actives have a fitted effect of over 45% in size
measurementSetup: SARS-CoV-2 pseudovirus cell entry assay, luminescence; at 57.1 µM (top of the series) unless noted
Inconclusive results are not listed.
activity change, negative = inhibition values, listed per item
Number in %, nothing else.

Examples with answers:
The compound identified as "O=C(Cn1cnnn1)N[C@@H]1C(=O)N2C(C(=O)O)=C(CSc3nncs3)CS[C@H]12" registered its activity change, negative = inhibition at -9.88

// activity change, negative = inhibition lookup, compound = "CN(C)C=Nc1c(I)cc(I)c(CCC(=O)O)c1I" , result: -33.1

Now consider the entry below.
The reported value for CC1Oc2cc(cnc2N)-c2c(nn(C)c2C#N)CN(C)C(=O)c2ccc(F)cc21 (centres undefined) in terms of activity change, negative = inhibition is -19.3

* * *

procedureSummary: Primary qHTS for inhibitors of SARS-S pseudo-typed particle cell entry (AID 1479145); further: nearly all actives have a fitted effect of over 45% in size
measurementSetup: SARS-S pseudotyped particle cell entry, luciferase reporter; series mostly up to 57.1 µM
Results filed as inconclusive are left out. Active and inactive are the calls of the source. The call rests on the fitted dose curve.
Log the outcome using a class from TRUE = active, FALSE = inactive

Ask: Could you check what this test reported for "CC(C)CCC[C@@H](C)[C@H]1CC[C@H]2[C@@H]3CC[C@H]4C[C@@H](O)CC[C@]4(C)[C@@H]3CC[C@]12C" ?
Reply: FALSE

Ask: Name the outcome recorded for "NCCCC[C@H](NC(=O)[C@@H]1CCCN1C(=O)[C@@H]1CSSC[C@H](N)C(=O)N[C@@H](Cc2ccccc2)C(=O)N[C@@H](Cc2ccccc2)C(=O)N[C@@H](CCC(N)=O)C(=O)N[C@@H](CC(N)=O)C(=O)N1)C(=O)NCC(N)=O" in the assay.
Reply: FALSE

Ask: What did the test return for "OB1OCc2cc(F)ccc21" ?
Reply: FALSE

Ask: For this compound, state the assay outcome: "CCCCCCCCCCCC(=O)OCN1C(=O)CCc2ccc(OCCCCN3CCN(c4cccc(Cl)c4Cl)CC3)cc21"
Reply: FALSE

Ask: Could you please tell me the result logged for Nc1nc(Cl)nc2c1ncn2C1CC(O)C(CO)O1 (configuration not stated) in this assay?
Reply: TRUE

***
Ask: Returns: the outcome recorded for C=CC[N@@+]12CC[C@]34c5ccccc5N5/C=C6\C7N(/C=C(\C53)[C@@H](C[C@@H]41)/C(=C/CO)C2)c1ccccc1[C@@]71CC[N@@+]2(CC=C)C/C(=C\CO)[C@@H]6C[C@@H]12 (some centres not stated) in this assay.
Reply: FALSE

Ask: Each compound tested received a call. Report the one for "CS(=O)(=O)n1cc2c(n1)CN([C@H]1CO[C@H](c3cc(F)ccc3F)[C@@H](N)C1)C2" .
Reply: FALSE

Ask: // param item: "CN(CCCCCCCCCCN(C)C(=O)Oc1cccc([N+](C)(C)C)c1)C(=O)Oc1cccc([N+](C)(C)C)c1" ; yields the recorded call
Reply: FALSE
